target: human mutated 5HT2A receptor, AP-3 (Homo sapiens, UniProt P28223, T25N); construct: Inositol Phosphate Accumulation AP-3 IC50 Value (nM); other: several concentrations; IP3 % of Control; other: one concentration of 10 μM, triplicate; control without test compound; test: Inositol phosphate accumulation assay, AP-3; type: cell-based; settings: read-out: IP3 % of Control
Sequence (P28223 whole entry T25N, looked up): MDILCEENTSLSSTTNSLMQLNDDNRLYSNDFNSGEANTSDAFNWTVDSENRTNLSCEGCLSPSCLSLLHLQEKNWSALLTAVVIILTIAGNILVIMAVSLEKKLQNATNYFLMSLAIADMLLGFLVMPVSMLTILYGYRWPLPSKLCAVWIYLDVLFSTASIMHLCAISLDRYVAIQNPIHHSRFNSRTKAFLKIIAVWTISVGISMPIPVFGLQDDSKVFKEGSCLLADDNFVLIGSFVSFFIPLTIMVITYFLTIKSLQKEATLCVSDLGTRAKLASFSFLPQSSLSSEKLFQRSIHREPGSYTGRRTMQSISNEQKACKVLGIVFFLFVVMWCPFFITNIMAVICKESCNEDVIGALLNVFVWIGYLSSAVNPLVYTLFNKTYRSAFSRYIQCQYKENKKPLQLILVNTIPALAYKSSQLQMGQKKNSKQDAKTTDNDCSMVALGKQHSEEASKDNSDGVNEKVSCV
Attribute: remaining activity at 10 µM
Please give a number only; it is taken to be in %.

Worked cases, remaining activity at 10 µM given:
Quick note, remaining activity at 10 µM for `Cn1cc(Br)c(-c2cccc(NC(=O)Nc3ccc(F)cc3)c2)n1` landed at 11

remaining activity at 10 µM recorded for this compound, `Cn1cc(Br)c(-c2cccc(NC(=O)Nc3ccc(SC(F)(F)F)cc3)c2)n1` , is 12

So, `Cn1cc(Br)c(-c2cccc(NC(=O)Nc3ccccc3F)c2)n1` ? Its remaining activity at 10 µM was 12

Data point: `Cn1cc(Br)c(-c2cccc(NC(=O)Nc3ccc(Cl)cc3)c2)n1` ; remaining activity at 10 µM = 10

API: the following record is the query input.
For this compound ( `Cn1cc(Br)c(-c2cccc(NC(=O)Nc3ccc(C(F)(F)F)cc3)c2)n1` ), measured remaining activity at 10 µM is 11

====

target: wild type human 5HT2A receptor (Homo sapiens, UniProt P28223); construct: expressed in transfected cells; host or cells: COS-7 cells, pCMV vector; assay: Competitive binding assay, [3H]LSD, WT 5HT2A; details: competitive binding using LSD; read-out: WT 5HT2A LSD IC50
Sequence (P28223 whole entry T25N/H452Y): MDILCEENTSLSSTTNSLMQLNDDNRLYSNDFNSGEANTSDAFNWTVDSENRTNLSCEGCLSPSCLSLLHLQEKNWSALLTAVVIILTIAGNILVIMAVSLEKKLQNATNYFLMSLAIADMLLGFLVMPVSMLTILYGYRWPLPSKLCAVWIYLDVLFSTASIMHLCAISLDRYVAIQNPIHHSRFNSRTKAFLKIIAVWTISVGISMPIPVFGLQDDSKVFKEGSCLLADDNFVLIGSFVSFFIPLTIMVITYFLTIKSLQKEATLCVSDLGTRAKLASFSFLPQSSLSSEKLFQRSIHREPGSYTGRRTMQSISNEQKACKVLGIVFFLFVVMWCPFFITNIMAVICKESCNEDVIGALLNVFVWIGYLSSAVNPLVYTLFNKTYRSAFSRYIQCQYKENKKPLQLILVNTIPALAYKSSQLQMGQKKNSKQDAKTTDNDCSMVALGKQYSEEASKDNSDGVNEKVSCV
endpoint_name: pIC50
Formally, pIC50 is defined as -log10 of the concentration c, with c in mol/L.

The recorded pIC50 for COc1cc(CNC(=O)Nc2cccc(-c3nn(C)cc3Br)c2)cc(OC)c1OC [Compound 116184] is 5.53

GET /value?item= Cn1cc(Br)c(-c2cccc(NC(=O)Nc3ccc(C(C)(C)C)cc3)c2)n1 [Compound 116119] &field=pIC50 returns 6.32

Notebook: CN(C)c1ccc(NC(=O)Nc2cccc(-c3nn(C)cc3Br)c2)cc1 [Compound 116122] , pIC50 read as 6.51

get_value(item= COc1cccc(CC(=O)Nc2cccc(-c3nn(C)cc3Br)c2)c1 [Compound 116175] , readout=pIC50) returns 6.20

====

Target: constitutively active mutant human 5HT2C receptor AP-1 (Homo sapiens, UniProt P28335, S310K)
Construct: expressed in transfected cells; host or cells: COS7 cells, pCMV vector, transient
Sequence (P28335 33-458 S310K): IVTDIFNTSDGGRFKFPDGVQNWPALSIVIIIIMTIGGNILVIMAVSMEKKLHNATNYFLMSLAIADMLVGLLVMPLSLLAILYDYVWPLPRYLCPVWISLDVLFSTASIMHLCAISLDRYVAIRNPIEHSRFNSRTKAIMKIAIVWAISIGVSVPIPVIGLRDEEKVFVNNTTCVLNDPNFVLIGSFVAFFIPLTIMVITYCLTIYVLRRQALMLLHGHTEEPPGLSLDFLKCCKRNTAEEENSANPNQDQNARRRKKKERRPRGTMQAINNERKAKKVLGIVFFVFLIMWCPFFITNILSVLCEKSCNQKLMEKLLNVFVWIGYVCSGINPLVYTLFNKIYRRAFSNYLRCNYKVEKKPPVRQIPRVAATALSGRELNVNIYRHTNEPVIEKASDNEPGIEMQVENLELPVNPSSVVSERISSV
Test: [35S]GTPγS binding assay with membranes of COS7 cells expressing AP-1
Assay type: biochemical
Settings: read-out: IC50 (nM) in GTP-γ-[35S] Assay
endpoint_name: IC50 (nM)
Field format: number, assumed nM, no unit text.

// field: IC50; key: `Cc1nc2sccn2c(=O)c1CCN1CCC(=C(c2ccc(F)cc2)c2ccc(F)cc2)CC1` ; value = 19.4

====

Listing of entries alongside the reported melting point.

Examples with their reported melting point follow.
Value of melting point reported for the compound `Cn1cc(Br)c(-c2cccc(NC(=O)NCc3ccc(OC(F)(F)F)cc3)c2)n1` is 144.6 to 145.8 °C

Reported melting point for `Cn1cc(Br)c(-c2cccc(NC(=O)c3cccs3)c2)n1` was 127.8 to 128.6 °C

Form: compound = `Cn1cc(Br)c(-c2cccc(NC(=O)c3ccc(Cl)cc3)c2)n1` ; melting point = 184.4 to 184.8 °C

The compound `Cn1cc(Br)c(-c2cccc(NC(=O)c3ccc(OC(F)(F)F)cc3)c2)n1` showed melting point equal to 138.6 to 139.6 °C

More entries:
The measured melting point associated with `COc1ccc(OC(=O)Nc2cccc(-c3nn(C)cc3Br)c2)cc1` reads 140.3 to 141.8 °C

====

target: human mutated 5HT2A receptor, AP-3 (Homo sapiens, UniProt P28223, T25N); construct: Inositol Phosphate Accumulation AP-3 IC50 Value (nM); other: several concentrations; IP3 % of Control; other: one concentration of 10 μM, triplicate; control without test compound; assay: Inositol phosphate accumulation assay, AP-3; assay type: cell-based; settings: several concentrations; read-out: IP3 AP-3 IC50
IC50 values for the compounds below.
Numbers only here, please. The scale is nM.

Lab note: measured IC50 of `Cn1cc(Br)c(-c2cccc(NC(=O)NC3CCCCC3)c2)n1` was 114

Reported IC50 of `COc1cccc(CC(=O)Nc2cccc(-c3nn(C)cc3Br)c2)c1` : 108

Record `COc1ccccc1CC(=O)Nc1cccc(-c2nn(C)cc2Br)c1` , field IC50: 165

The compound `COc1ccc(CCNC(=O)Nc2cccc(-c3nn(C)cc3Br)c2)cc1` showed IC50 equal to 32

// next item, IC50 requested
Summary for this compound, `Cn1cc(Br)c(-c2cccc(NC(=O)NCc3ccccc3)c2)n1` : IC50 is 120

====

target: wild type human 5HT2A receptor (Homo sapiens); construct: expressed in transfected cells; host or cells: COS-7 cells, pCMV vector; test: Competitive binding assay, [3H]LSD, WT 5HT2A; conditions: competitive binding using LSD; read-out: WT 5HT2A LSD IC50
pIC50: −log10 of the molar value.
Label condition met when pIC50 is at or above 7; otherwise label condition not met.

Answered examples (5):
// query Threshold query (pIC50 >= 7) on CN(C(=O)Nc1cccc(-c2nn(C)cc2Br)c1)c1ccc(OC(F)(F)F)cc1 [Compound 116113]
// result condition met

// query Please tell me: is the compound Cn1cc(Br)c(-c2cccc(NC(=O)Nc3ccccc3Cl)c2)n1 [Compound 116108] at or over 7 in terms of pIC50?
// result condition not met

// query State whether the measured pIC50 reaches 7, counting equality as reaching it, for Cn1cc(Br)c(-c2cccc(NC(=O)Nc3ccccc3OC(F)(F)F)c2)n1 [Compound 116087]
// result condition not met

// query Hi, just wondering whether Cn1cc(Br)c(-c2cccc(NC(=O)Nc3ccc(Cl)cc3)c2)n1 [Compound 116081] shows pIC50 of 7 or higher.
// result condition met

// query Decide: is the reported value of pIC50 for Cn1cc(Br)c(-c2cccc(NC(=O)Nc3ccccc3C(N)=O)c2)n1 [Compound 116145] equal to or greater than 7?
// result condition not met

More entries:
// query Hi, just wondering whether Cn1cc(Br)c(-c2cccc(NC(=O)Nc3ccc(SC(F)(F)F)cc3)c2)n1 [Compound 116139] shows pIC50 of 7 or higher.
// result condition met

// query hey, is pIC50 for this one >= 7? Cn1cc(Br)c(-c2cccc(NC(=O)Cc3ccccc3F)c2)n1 [Compound 116176]
// result condition not met

// query Has Cn1cc(Br)c(-c2cccc(NC(=O)Nc3ccc(C#N)cc3)c2)n1 [Compound 116147] a recorded pIC50 greater than or equal to 7?
// result condition met

// query Does Cn1cc(Br)c(-c2cccc(NC(=O)Nc3ccccc3C#N)c2)n1 [Compound 116148] have a reported pIC50 of at least 7?
// result condition not met

// query Assess whether reported pIC50 for Cn1cc(Br)c(-c2cccc(NC(=O)Nc3ccc(F)cc3)c2)n1 [Compound 116082] sits at 7 or higher.
// result condition met

// query Decide: is the reported value of pIC50 for Cc1cccc(NC(=O)Nc2cccc(-c3nn(C)cc3Br)c2)c1 [Compound 116112] equal to or greater than 7?
// result condition met

// query # check: pIC50 of COc1ccc(NC(=O)Nc2cccc(-c3nn(C)cc3Br)c2)cc1 [Compound 116091] is greater than or equal to 7
// result condition met

====

target: human mutated 5HT2A receptor, AP-3 (Homo sapiens, UniProt P28223, T25N); construct: Inositol Phosphate Accumulation AP-3 IC50 Value (nM); other: several concentrations; IP3 % of Control; other: one concentration of 10 μM, triplicate; control without test compound; test: Inositol phosphate accumulation assay, AP-3; type: cell-based; settings: one concentration of 10 μM, triplicate; control without test compound; read-out: IP3 % of Control;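 further: transfected 293 cells prelabeled with 3H-inositol, exposed to compound 120 min at 37 °C with LiCl and pargyline, inositol trisphosphates isolated by anion exchange and counted by scintillation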
endpoint_name: remaining activity at 10 µM (%)
All answers are understood in %, so give the number only.

The following molecules have reported results that may help.
Given the molecule Cn1cc(Br)c(-c2cccc(NC(=O)Nc3ccccc3Cl)c2)n1 [Compound 116108] and test system human mutated 5HT2A receptor, AP-3 (Homo sapiens, UniProt P28223, T25N), the measured remaining activity at 10 µM is 6

// molecule Cn1cc(Br)c(-c2cccc(NC(=O)Nc3ccccc3C(N)=O)c2)n1 [Compound 116145] , assay human mutated 5HT2A receptor, AP-3 (Homo sapiens, UniProt P28223, T25N), remaining activity at 10 µM value: 31

Entry Cc1c(Cl)cc(NC(=O)Nc2cccc(-c3nn(C)cc3Br)c2)cc1Cl [Compound 116138] , human mutated 5HT2A receptor, AP-3 (Homo sapiens, UniProt P28223, T25N) data, remaining activity at 10 µM value: 23

Short answer on human mutated 5HT2A receptor, AP-3 (Homo sapiens, UniProt P28223, T25N) for CN(C)c1ccc(NC(=O)Nc2cccc(-c3nn(C)cc3Br)c2)cc1 [Compound 116122] , remaining activity at 10 µM: 9

human mutated 5HT2A receptor, AP-3 (Homo sapiens, UniProt P28223, T25N) remaining activity at 10 µM of Cn1cc(Br)c(-c2cccc(NC(=O)Nc3ccccc3[N+](=O)[O-])c2)n1 [Compound 116089] is 27

Further cases:
Item Cc1ccccc1NC(=O)Nc1cccc(-c2nn(C)cc2Br)c1 [Compound 116092] ; assay system human mutated 5HT2A receptor, AP-3 (Homo sapiens, UniProt P28223, T25N); remaining activity at 10 µM reported as 32

Log: human mutated 5HT2A receptor, AP-3 (Homo sapiens, UniProt P28223, T25N), molecule Cn1cc(Br)c(-c2cccc(NC(=O)Nc3ccccc3OC(F)(F)F)c2)n1 [Compound 116087] , remaining activity at 10 µM = 11

Value (remaining activity at 10 µM, human mutated 5HT2A receptor, AP-3 (Homo sapiens, UniProt P28223, T25N)) for record COc1cccc(NC(=O)Nc2cccc(-c3nn(C)cc3Br)c2)c1 [Compound 116111] = 7

Record Cn1cc(Br)c(-c2cccc(NC(=O)Nc3ccc(C(C)(C)C)cc3)c2)n1 [Compound 116119] / human mutated 5HT2A receptor, AP-3 (Homo sapiens, UniProt P28223, T25N), remaining activity at 10 µM recorded as 17

remaining activity at 10 µM value, target or system human mutated 5HT2A receptor, AP-3 (Homo sapiens, UniProt P28223, T25N), for Cn1cc(Br)c(-c2cccc(NC(=O)Nc3ccccc3C#N)c2)n1 [Compound 116148] : 30
